- experimental_protocol: Half life period in phosphate buffer (0.2 M)
- Type: ADME

# compound, half-life / min
records = [
    ("O=P(O)(NCCCl)NCCCl [PALIFOSFAMIDE]", 60),
]

----------
- experimental_protocol: Half life period in human plasma using phosphate buffer (0.08 M)
- Format: ADME, cell-free
Below, each of the molecules is paired with its reported half-life value.

# molecule, inequality_operator, half-life, h
records = [
    ("CS(=O)(=O)CCOP(=O)(NCCCl)NCCCl", "=", 2.2),
    ("CS(=O)(=O)CCOP(=O)(N(CCCl)CCCl)N(CCCl)CCCl", "=", 1.6),
    ("O=[N+]([O-])c1ccc(S(=O)(=O)CCOP(=O)(N(CCCl)CCCl)N(CCCl)CCCl)cc1", "=", 0.37),
    ("O=[N+]([O-])c1ccc(S(=O)(=O)CCOP(=O)(NCCCl)NCCCl)cc1", "<", 0.01),
    ("Cc1ccc(S(=O)(=O)CCOP(=O)(NCCCl)NCCCl)cc1", "=", 4.4),
    ("O=P(NCCCl)(NCCCl)OCCS(=O)(=O)c1ccccc1", "=", 2.6),
    ("CS(=O)(=O)CC(OP(=O)(N(CCCl)CCCl)N(CCCl)CCCl)c1ccccc1 (stereo not drawn)", "=", 1),
    ("Cc1ccc(S(=O)(=O)CCOP(N)(=O)N(CCCl)CCCl)cc1 (stereo not drawn)", "=", 4.8),
]
